assay: Displacement of fluorescent Bocillin FL from Pseudomonas aeruginosa PBP3
experimental-endpoint: pIC50
// pIC50 here means minus log10 of the molar concentration (mol/L)

molecule	pIC50
Nc1nc(/C(=N/OCc2cc(=O)c(O)cn2O)C(=O)N[C@H]2CON(C3(C(=O)O)CCC(=O)O3)C2=O)cs1 (stereo partly specified)	6.85
CC(C)(O/N=C(\C(=O)N[C@H]1CON(C2(C(=O)O)C[C@H](NC(=O)c3cc(=O)c(O)cn3O)C(=O)O2)C1=O)c1csc(N)n1)C(=O)O (stereo partly specified)	7.04
CC(C)(O/N=C(\C(=O)N[C@H]1CON(C2(C(=O)O)C[C@H](N3C(=O)c4cc(O)c(O)cc4C3=O)C(=O)O2)C1=O)c1csc(N)n1)C(=O)O (stereo partly specified)	7.34
C[C@H]1[C@H](NC(=O)/C(=N\OC(C)(C)C(=O)O)c2csc(N)n2)C(=O)N1S(=O)(=O)O [AZTREONAM]	8.10
CC(C)(O/N=C(\C(=O)N[C@H]1CON(C2(C(=O)O)CCC(=O)O2)C1=O)c1csc(N)n1)C(=O)O (stereo partly specified)	7.04

Report pIC50 for CC(C)(O/N=C(\C(=O)N[C@H]1CON(C2(C(=O)O)C[C@@H](NC(=O)c3cc(=O)c(O)cn3O)C(=O)O2)C1=O)c1csc(N)n1)C(=O)O (stereo partly specified) please.
7.19
